# assayed.target: Amine oxidase [flavin-containing] A (Homo sapiens)
# Sequence (P21397 whole entry): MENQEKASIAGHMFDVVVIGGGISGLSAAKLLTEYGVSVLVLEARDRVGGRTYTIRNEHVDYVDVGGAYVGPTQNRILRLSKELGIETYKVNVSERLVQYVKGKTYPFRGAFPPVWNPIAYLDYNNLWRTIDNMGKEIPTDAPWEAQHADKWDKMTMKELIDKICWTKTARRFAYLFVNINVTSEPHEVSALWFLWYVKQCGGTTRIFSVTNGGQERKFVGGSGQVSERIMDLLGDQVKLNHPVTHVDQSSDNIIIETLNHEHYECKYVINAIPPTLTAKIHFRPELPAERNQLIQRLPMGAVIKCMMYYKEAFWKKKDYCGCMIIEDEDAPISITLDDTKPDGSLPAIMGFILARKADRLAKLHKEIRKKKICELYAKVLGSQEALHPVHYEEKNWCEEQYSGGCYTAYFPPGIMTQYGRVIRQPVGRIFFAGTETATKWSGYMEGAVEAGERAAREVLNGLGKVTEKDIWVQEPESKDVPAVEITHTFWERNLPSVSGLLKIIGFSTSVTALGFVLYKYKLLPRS
# assay.info: Inhibition of human recombinant MAOA assessed as inhibition of kynuramine conversion to fluorescent metabolite 4-hydroxyquinoline by fluorimetry
pIC50: −log10 of the molar value.
reported.property: pIC50

• COc1cc(/C=C2/SC(=S)NC2=O)c(OC)cc1O = 3.42
• O=C1NC(=O)/C(=C\c2cccc(Br)c2)S1 = 4.17
• CN(C)c1ccc(/C=C2\SC(=O)N(CCN)C2=O)cc1 = 5.16
• O=C1NC(=O)/C(=C\c2ccncc2)S1 = 4.89
• O=C(/C=C1/SC(=O)NC1=O)Nc1cccc(O)c1 = 4.45
• COc1ccccc1/C=C1\SC(=O)N(CCN)C1=O = 4.53
• O=C(/C=C1/SC(=O)NC1=O)Nc1ccccc1 = 4.45
• O=C(O)CCN1C(=O)/C(=C\c2ccccc2)SC1=S = 4.15
• CC(=O)c1ccc(CC2SC(=N)NC2=O)cc1 (configuration not stated) = 3.60
• O=C1NC(=O)/C(=N\c2ccc(C(=O)O)cc2)S1 = 4.43
• O=C1NC(=S)S/C1=C/c1ccncc1 = 4.66
• CN1C(=O)/C(=C\c2ccccc2)SC1=S = 6.28
• O=C1NC(=O)/C(=C/c2ccc3nccnc3c2)S1 = 3.78
• N#CCCN1C(=O)S/C(=C\c2ccccc2)C1=O = 5.46
• CCOc1ccc(/C=C2\SC(=O)N(CCN)C2=O)cc1 = 5.98
• CN1C(=O)/C(=C\c2ccc(Cl)cc2)SC1=S = 3.40
• COc1cc(/C=C2\SC(=S)NC2=O)ccc1O = 4.54
• O=C1NC(=O)/C(=C\c2cc(Br)c(O)c(Br)c2)S1 = 4.40
• Cc1cc(C)cc(CC2SC(=O)NC2=O)c1 (configuration not stated) = 4.30
• Cc1cc(CC2SC(=O)NC2=O)cc(C)c1O (configuration not stated) = 4.58
• O=C1NC(=O)C(Cc2ccc(O)cc2)S1 (configuration not stated) = 3.71
• CCCN1C(=O)/C(=C\c2ccncc2)SC1=S = 4.98
